Below, each entry is listed alongside its reported MIC.
system: Pseudomonas aeruginosa; test: Antibacterial activity against Pseudomonas aeruginosa ATCC27853 by CLSI based serial dilution method; format: functional

Field: example entries. Status: answers known.
Chemical Smiles | MIC
CCCCCCN(CCCCCC)C(=O)C[N+](C)(C)CCCCCOc1cc(C(C)C)ccc1C.[Br-] | 16 µg/mL
CCCCCNC(=O)C[N+](C)(C)CCCOc1cc(C(C)C)ccc1C.[Br-] | 128 µg/mL
Cc1ccc(C(C)C)c(OCCCCC[N+](C)(C)CC(=O)N(C(C)C)C(C)C)c1.[Br-] | > 128 µg/mL
CCCCN(CCCC)C(=O)C[N+](C)(C)CCCCCOc1cc(C(C)C)ccc1C.[Br-] | 32 µg/mL
CCCNC(=O)C[N+](C)(C)CCCOc1cc(C)ccc1C(C)C.[Br-] | > 128 µg/mL

The reported value for `CCCCCCN(CCCCCC)C(=O)C[N+](C)(C)CCCOc1cc(C)ccc1C(C)C.[Br-]` in terms of MIC is > 128 µg/mL

The reported value for `Cc1ccc(C(C)C)cc1OCCC[N+](C)(C)CC(=O)N(CC(C)C)CC(C)C.[Br-]` in terms of MIC is > 128 µg/mL

The reported value for `CCCN(CCC)C(=O)C[N+](C)(C)CCCCOc1cc(C(C)C)ccc1C.[Br-]` in terms of MIC is > 128 µg/mL

The reported value for `CCCNC(=O)C[N+](C)(C)CCCOc1cc(C(C)C)ccc1C.[Br-]` in terms of MIC is > 128 µg/mL

The reported value for `CCCCCCNC(=O)C[N+](C)(C)CCCCCOc1cc(C(C)C)ccc1C.[Br-]` in terms of MIC is 16 µg/mL

----------
Below, each entry is listed alongside its reported MIC.
system: Enterococcus; assay: Antibacterial activity against vancomycin-resistant Enterococcus ATCC51299 by CLSI based serial dilution method; type: functional
Entry rule: numbers only, all in µg/mL.

Field: example entries. Status: answers known.
Chemical Smiles | MIC [µg/mL]
CCCNC(=O)C[N+](C)(C)CCCCCOc1cc(C(C)C)ccc1C.[Br-] | 128
CC1(C)S[C@@H]2[C@H](NC(=O)[C@H](N)c3ccccc3)C(=O)N2[C@H]1C(=O)O | 16
CCCCCCCNC(=O)C[N+](C)(C)CCCCCOc1cc(C(C)C)ccc1C.[Br-] | 2
Cc1ccc(C(C)C)cc1OCCCCC[N+](C)(C)CC(=O)N(C(C)C)C(C)C.[Br-] | 8
CCCCCCCNC(=O)C[N+](C)(C)CCCOc1cc(C)ccc1C(C)C.[Br-] | 4
Cc1ccc(C(C)C)c(OCCC[N+](C)(C)CC(=O)N(C(C)C)C(C)C)c1.[Br-] | 32

The reported value for `CCCCCNC(=O)C[N+](C)(C)CCCCCOc1cc(C(C)C)ccc1C.[Br-]` in terms of MIC is 16

The reported value for `Cc1ccc(C(C)C)c(OCCCCC[N+](C)(C)CC(=O)N(C(C)C)C(C)C)c1.[Br-]` in terms of MIC is 16

----------
system: Enterococcus; assay: Antibacterial activity against vancomycin-resistant Enterococcus ATCC51299 by CLSI based serial dilution method; format: functional
Assay Metric: MIC (µg/mL)
Entry rule: numbers only, all in µg/mL.

Chemical Smiles | MIC / µg/mL
CCCCCCNC(=O)C[N+](C)(C)CCCOc1cc(C)ccc1C(C)C.[Br-] | 8
Cc1ccc(C(C)C)cc1OCCCC[N+](C)(C)CC(=O)N(C(C)C)C(C)C.[Br-] | 32
CCCN(CCC)C(=O)C[N+](C)(C)CCCOc1cc(C)ccc1C(C)C.[Br-] | 128
CCCCNC(=O)C[N+](C)(C)CCCOc1cc(C(C)C)ccc1C.[Br-] | 64

The reported value for `CCCCNC(=O)C[N+](C)(C)CCCCCOc1cc(C)ccc1C(C)C.[Br-]` in terms of MIC is 64

The reported value for `CCCCCCCNC(=O)C[N+](C)(C)CCCCCOc1cc(C)ccc1C(C)C.[Br-]` in terms of MIC is 8

----------
experiment: Hemolytic activity against rabbit RBC incubated for 1 hr by absorbance based assay; type: toxicity, cell-based, Oryctolagus cuniculus, Erythrocyte; conditions: rabbit red blood cells (erythrocytes)
Assay Metric: HC50 at 1 h (µg/mL)
Entry rule: numbers only, all in µg/mL.

The reported value for `CCCCCCCNC(=O)C[N+](C)(C)CCCCOc1cc(C)ccc1C(C)C.[Br-]` in terms of HC50 at 1 h is 472

----------
system: Pseudomonas aeruginosa; experiment: Antibacterial activity against Pseudomonas aeruginosa ATCC27853 by CLSI based serial dilution method; assay type: functional
Assay Metric: MIC

Compound | MIC
CCCN(CCC)C(=O)C[N+](C)(C)CCCCOc1cc(C)ccc1C(C)C.[Br-] | > 128 µg/mL
CCCCCCNC(=O)C[N+](C)(C)CCCOc1cc(C(C)C)ccc1C.[Br-] | 32 µg/mL
Cc1ccc(C(C)C)c(OCCC[N+](C)(C)CC(=O)N(C(C)C)C(C)C)c1.[Br-] | > 128 µg/mL

The reported value for `CCCCN(CCCC)C(=O)C[N+](C)(C)CCCCOc1cc(C)ccc1C(C)C.[Br-]` in terms of MIC is > 128 µg/mL

The reported value for `Cc1ccc(C(C)C)cc1OCCC[N+](C)(C)CC(=O)N1CCOCC1.[Br-]` in terms of MIC is > 128 µg/mL

The reported value for Cc1ccc(C(C)C)cc1O [CARVACROL] in terms of MIC is > 128 µg/mL

The reported value for `CCCCCNC(=O)C[N+](C)(C)CCCCOc1cc(C)ccc1C(C)C.[Br-]` in terms of MIC is > 128 µg/mL

The reported value for `Cc1ccc(C(C)C)cc1OCCC[N+](C)(C)CC(=O)N(C(C)C)C(C)C.[Br-]` in terms of MIC is > 128 µg/mL

The reported value for `CCCN(CCC)C(=O)C[N+](C)(C)CCCCCOc1cc(C)ccc1C(C)C.[Br-]` in terms of MIC is > 128 µg/mL

The reported value for `CCCCCCNC(=O)C[N+](C)(C)CCCCOc1cc(C)ccc1C(C)C.[Br-]` in terms of MIC is 64 µg/mL

----------
Below, each entry is listed alongside its reported MIC.
test system: Enterococcus; assay: Antibacterial activity against vancomycin-resistant Enterococcus ATCC51299 by CLSI based serial dilution method; type: functional

Field: example entries. Status: answers known.
Chemical Smiles | MIC
CCCCCCNC(=O)C[N+](C)(C)CCCOc1cc(C(C)C)ccc1C.[Br-] | 8 µg/mL
CCCNC(=O)C[N+](C)(C)CCCOc1cc(C)ccc1C(C)C.[Br-] | > 128 µg/mL
CCCN(CCC)C(=O)C[N+](C)(C)CCCOc1cc(C(C)C)ccc1C.[Br-] | 128 µg/mL
CCCCCNC(=O)C[N+](C)(C)CCCCOc1cc(C(C)C)ccc1C.[Br-] | 16 µg/mL
CCCCNC(=O)C[N+](C)(C)CCCOc1cc(C)ccc1C(C)C.[Br-] | 128 µg/mL

The reported value for `CCCCCCCNC(=O)C[N+](C)(C)CCCOc1cc(C(C)C)ccc1C.[Br-]` in terms of MIC is 4 µg/mL

The reported value for `CN[C@H](CC(C)C)C(=O)N[C@H]1C(=O)N[C@@H](CC(N)=O)C(=O)N[C@H]2C(=O)N[C@H]3C(=O)N[C@H](C(=O)N[C@H](C(=O)O)c4cc(O)cc(O)c4-c4cc3ccc4O)[C@H](O)c3ccc(c(Cl)c3)Oc3cc2cc(c3O[C@@H]2O[C@H](CO)[C@@H](O)[C@H](O)[C@H]2O[C@H]2C[C@](C)(N)[C@H](O)[C@H](C)O2)Oc2ccc(cc2Cl)[C@H]1O` in terms of MIC is > 128 µg/mL

----------
test system: Enterococcus; test: Antibacterial activity against vancomycin-resistant Enterococcus ATCC51299 by CLSI based serial dilution method; type: functional
Assay Metric: MIC

Chemical Smiles | Result
Cc1ccc(C(C)C)c(OCCC[N+](C)(C)CC(=O)N(CC(C)C)CC(C)C)c1.[Br-] | 16 µg/mL

The reported value for `CCCCN(CCCC)C(=O)C[N+](C)(C)CCCCOc1cc(C)ccc1C(C)C.[Br-]` in terms of MIC is 8 µg/mL

The reported value for `Cc1ccc(C(C)C)c(OCCCC[N+](C)(C)CC(=O)N(C(C)C)C(C)C)c1.[Br-]` in terms of MIC is 32 µg/mL

The reported value for `CCCCCCCNC(=O)C[N+](C)(C)CCCCOc1cc(C)ccc1C(C)C.[Br-]` in terms of MIC is 2 µg/mL

The reported value for `CCCCN(CCCC)C(=O)C[N+](C)(C)CCCOc1cc(C)ccc1C(C)C.[Br-]` in terms of MIC is 32 µg/mL

The reported value for `CCCN(CCC)C(=O)C[N+](C)(C)CCCCCOc1cc(C)ccc1C(C)C.[Br-]` in terms of MIC is 16 µg/mL

The reported value for `Cc1ccc(C(C)C)cc1OCCC[N+](C)(C)CC(=O)N(C(C)C)C(C)C.[Br-]` in terms of MIC is 32 µg/mL

The reported value for `CCCN(CCC)C(=O)C[N+](C)(C)CCCCOc1cc(C(C)C)ccc1C.[Br-]` in terms of MIC is 64 µg/mL

The reported value for `CCCNC(=O)C[N+](C)(C)CCCCOc1cc(C(C)C)ccc1C.[Br-]` in terms of MIC is > 128 µg/mL

The reported value for `Cc1ccc(C(C)C)cc1OCCCCC[N+](C)(C)CC(=O)N1CCOCC1.[Br-]` in terms of MIC is > 128 µg/mL
